Tested on: A549
Assay: Cytotoxicity against human A549 cells after 72 hrs by sulforhodamine B colorimetric assay
Type: functional, cell-based
Details: A549, 72 h
valueKind: pIC50
In plain terms, pIC50 is the concentration in mol/L turned into minus its base-10 logarithm.

Tell me the measured pIC50 of `CC[C@@]1(OC(=O)CN/C(C[Si](C)(C)C)=N/S(=O)(=O)c2ccc(C)cc2)C(=O)OCc2c1cc1n(c2=O)Cc2cc3ccccc3nc2-1` , please.
7.52

May I ask what pIC50 has been recorded for `CC[C@@]1(OC(=O)CN/C(Cc2ccc(OC)cc2)=N/S(=O)(=O)c2ccc([N+](=O)[O-])cc2)C(=O)OCc2c1cc1n(c2=O)Cc2cc3ccccc3nc2-1` ?
7.83

Given the entry `CCc1c(OP(=O)(O)OC)ccc2nc3c(cc12)Cn1c-3cc2c(c1=O)COC(=O)[C@@]2(CC)OC(=O)CN/C(Cc1ccc(OC)cc1)=N/S(=O)(=O)c1ccc(C)cc1` , report its measured pIC50.
6.46

Item `CC[C@@]1(OC(=O)CN/C(Cc2ccc(OC)cc2)=N/S(=O)(=O)c2ccc3ccccc3c2)C(=O)OCc2c1cc1n(c2=O)Cc2cc3ccccc3nc2-1` has what recorded pIC50?
7.79

Entry `CC[C@@]1(OC(=O)CN/C(Cc2ccc(OC)cc2)=N/S(=O)(=O)c2ccc(C)cc2)C(=O)OCc2c1cc1n(c2=S)Cc2cc3ccccc3nc2-1` has what pIC50?
6.85

Could you tell me which pIC50 is on file for `CC[C@@]1(OC(=O)CN/C(Cc2ccc(C)cc2)=N/S(=O)(=O)c2ccc(C)cc2)C(=O)OCc2c1cc1n(c2=O)Cc2cc3ccccc3nc2-1` ?
7.76

I would be grateful if you could share the reported pIC50 for `CC[C@@]1(OC(=O)CN/C(Cc2ccc(OC)cc2)=N/S(=O)(=O)c2ccc(C)cc2)C(=O)OCc2c1cc1n(c2=O)Cc2cc3cc(O)ccc3nc2-1` .
7.19

Value lookup for pIC50; key = CC[C@@]1(OC(=O)CN/C(Cc2ccc(OC)cc2)=N/S(=O)(=O)c2ccc(C)cc2)C(=O)OCc2c1cc1n(c2=O)C(OC)c2cc3ccccc3nc2-1 (some centres not stated)
5.14

Which measured pIC50 value corresponds to `CC[C@@]1(OC(=O)CN/C(Cc2ccc(OC)cc2)=N/S(=O)(=O)c2ccc(C)cc2)C(=O)OCc2c1cc1n(c2=O)Cc2cc3cccc([N+](=O)[O-])c3nc2-1` ?
4.86

Which pIC50 is reported for this compound? `CC[C@@]1(OC(=O)CN/C(Cc2ccc(OC)cc2)=N/S(=O)(=O)CC)C(=O)OCc2c1cc1n(c2=O)Cc2cc3ccccc3nc2-1`
7.32

What value of pIC50 has been recorded for this entry: `CC[C@@]1(OC(=O)CN/C(Cc2ccc(OC)cc2)=N/S(=O)(=O)c2ccc(C)cc2)CC(=O)OCc2c1cc1n(c2=O)Cc2cc3ccccc3nc2-1`
7.08

pIC50 for `CC[C@@]1(OC(=O)CN/C(Cc2ccc(OC)cc2)=N/S(C)(=O)=O)C(=O)OCc2c1cc1n(c2=O)Cc2cc3ccccc3nc2-1` ?
7.27
